molecular target: Intercellular adhesion molecule (ICAM-1), Integrin alpha-L/beta-2 (Homo sapiens, UniProt P05107+P20701); experiment: Inhibition of LFA-1 mediated JY-8 cell adhesion to ICAM-1, range (100-600); assay type: functional, cell-based
pIC50: −log10 of the molar value.
Parameter Measured: pIC50

INSERT INTO measurements (smiles_notation, parameter_measured, quantitative_readout) VALUES
  ('CC(=O)N1CCN(C(=O)/C=C/c2ccc(Sc3ccc(Cl)cc3Cl)c(Cl)c2)CC1', 'pIC50', 6.89);

###

biological target: Integrin alpha-L (Homo sapiens); assay: Inhibition of intercellular adhesion molecule-1 (ICAM-1) binding to recombinant LFA-1, range(760-2620)
pIC50: −log10 of the molar value.
Parameter Measured: pIC50

INSERT INTO assay_data (smiles_notation, parameter_measured, quantitative_readout) VALUES
  ('COc1ccccc1Sc1ccc(/C=C/C(=O)N2CCC(C(=O)O)CC2)c(Cl)c1', 'pIC50', 5.85);

###

biological target: Integrin alpha-L (Homo sapiens)
pIC50: −log10 of the molar value.
Parameter Measured: pIC50

INSERT INTO results (molecule, parameter_measured, quantitative_readout) VALUES
  ('CC(C)c1ccccc1SC1=CC=C(/C=C/C(=O)N2CCC(C(=O)O)CC2)C(F)C1F (stereo unspecified)', 'pIC50', 6.94);

###

molecular target: Integrin alpha-L (Homo sapiens, UniProt P20701); assay: Inhibition of intercellular adhesion molecule-1 (ICAM-1) binding to recombinant LFA-1, range(130-170)
Parameter Measured: IC50 (µM)

INSERT INTO results (smiles_notation, quantitative_readout) VALUES
  ('COc1ccccc1Sc1ccc(/C=C/C(=O)N2CCOCC2)cc1Cl', 0.15);

###

molecular target: Integrin alpha-L (Homo sapiens, UniProt P20701)
pIC50: −log10 of the molar value.
Parameter Measured: pIC50

INSERT INTO measurements (smiles_notation, parameter_measured, quantitative_readout) VALUES
  ('O=C(O)C1CCN(C(=O)/C=C/c2ccc(Sc3ccc4c(c3)OCCO4)c(C(F)(F)F)c2C(F)(F)F)CC1', 'pIC50', 8.52);

###

Target: UniProt P20701
Sequence (P20701 whole entry): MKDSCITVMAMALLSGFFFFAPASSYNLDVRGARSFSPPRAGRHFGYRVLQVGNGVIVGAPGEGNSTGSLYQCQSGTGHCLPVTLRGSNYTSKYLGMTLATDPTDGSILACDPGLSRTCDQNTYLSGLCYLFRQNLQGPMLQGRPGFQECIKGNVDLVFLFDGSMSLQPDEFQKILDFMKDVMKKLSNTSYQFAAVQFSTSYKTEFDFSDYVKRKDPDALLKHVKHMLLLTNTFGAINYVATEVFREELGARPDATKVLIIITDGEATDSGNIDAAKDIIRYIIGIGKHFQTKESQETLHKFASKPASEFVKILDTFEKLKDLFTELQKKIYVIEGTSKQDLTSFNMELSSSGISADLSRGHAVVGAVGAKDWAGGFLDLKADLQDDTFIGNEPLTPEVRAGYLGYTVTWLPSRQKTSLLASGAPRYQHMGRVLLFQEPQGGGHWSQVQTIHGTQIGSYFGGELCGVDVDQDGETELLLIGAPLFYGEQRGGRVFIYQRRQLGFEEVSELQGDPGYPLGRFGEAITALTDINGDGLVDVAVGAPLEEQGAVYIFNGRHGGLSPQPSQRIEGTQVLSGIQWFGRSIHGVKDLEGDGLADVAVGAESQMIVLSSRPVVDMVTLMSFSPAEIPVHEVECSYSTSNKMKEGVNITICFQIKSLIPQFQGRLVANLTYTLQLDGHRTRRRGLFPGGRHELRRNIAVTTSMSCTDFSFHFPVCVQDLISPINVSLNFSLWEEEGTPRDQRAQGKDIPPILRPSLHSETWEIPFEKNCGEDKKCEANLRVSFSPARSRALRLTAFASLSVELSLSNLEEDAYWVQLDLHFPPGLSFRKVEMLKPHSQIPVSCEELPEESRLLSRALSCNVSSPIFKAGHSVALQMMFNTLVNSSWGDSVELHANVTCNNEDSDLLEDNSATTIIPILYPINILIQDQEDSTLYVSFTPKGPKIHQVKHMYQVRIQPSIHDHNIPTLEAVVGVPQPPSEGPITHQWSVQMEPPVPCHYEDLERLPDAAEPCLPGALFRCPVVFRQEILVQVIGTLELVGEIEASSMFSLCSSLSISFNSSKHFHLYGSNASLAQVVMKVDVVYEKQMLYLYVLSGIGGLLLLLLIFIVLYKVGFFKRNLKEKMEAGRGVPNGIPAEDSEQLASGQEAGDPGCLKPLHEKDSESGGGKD
Experiment: Inhibition of intercellular adhesion molecule-1 (ICAM-1) binding to recombinant LFA-1
Quick list: IC50 per entry.
Parameter Measured: IC50

INSERT INTO assay_data (smiles_notation, result) VALUES
  ('O=C(O)C1CCN(C(=O)/C=C/c2cc(Cl)c(Sc3ccc4c(c3)OCCO4)c(C(F)(F)F)c2)CC1', '> 20 µM'),
  ('O=C(/C=C/c1ccc(Sc2cccc(Cl)c2Cl)cc1)N1CCOCC1', '9.1 µM'),
  ('COc1ccccc1Sc1ccc(/C=C/C(=O)N2CCC(C(=O)O)CC2)c(C)c1', '> 20 µM'),
  ('COc1ccccc1Sc1cc(C)c(/C=C/C(=O)N2CCC(C(=O)O)CC2)cc1[N+](=O)[O-]', '> 20 µM'),
  ('COc1ccccc1Sc1cc(C)c(/C=C/C(=O)N2CCC(C(=O)O)CC2)cc1Cl', '> 20 µM'),
  ('COc1ccccc1Sc1cc(Cl)c(/C=C/C(=O)N2CCC(C(=O)O)CC2)cc1Cl', '> 20 µM');
